Measured endpoint: melting point (°C)
Note: unit °C is implicit; provide only the numeric part.

Param item = c1ccc(Sc2c[nH]c3c(N4CCNCC4)cccc23)cc1 ; retrieve measured melting point. 300

Would you mind doing Cn1cc(S(=O)(=O)c2cccc(Cl)c2)c2cccc(N3CCNCC3)c21 [compound 408] as well? 300

What would you report for Cn1cc(S(=O)(=O)c2ccc(F)cc2)c2cccc(N3CCNCC3)c21 [compound 405] ? 300

# repeat for Cn1cc(S(=O)(=O)c2ccccc2C(F)(F)F)c2cccc(N3CCNCC3)c21 [compound 404] 295

* * *

Exercise: state measured melting point for each of the molecules provided.

Quick check: melting point of Cn1cc(S(=O)(=O)c2cccc(C(F)(F)F)c2)c2cccc(N3CCNCC3)c21 ? 279 to 280 °C

Param item: CN1CCN(c2cccc3c(S(=O)(=O)c4ccccc4)cn(C)c23)CC1 260 to 262 °C

Another molecule to look at: Cn1cc(S(=O)(=O)c2cccc(C(F)(F)F)c2)c2cc(N3CCNCC3)ccc21 235 to 240 °C

Further, for Cn1cc(S(=O)(=O)c2ccccn2)c2cc(N3CCNCC3)ccc21 ? 256.8 to 257.5 °C

Consider next the molecule CN1CCN(c2cccc3c(S(=O)(=O)c4ccc(Cl)cc4Cl)c[nH]c23)CC1 in the same way. 199 to 203 °C

Same read-out for CCCN1CCN(c2cccc3c(S(=O)(=O)c4ccccc4)c[nH]c23)CC1 ? 290 to 295 °C

Ok, now O=S(=O)(c1cccc(Cl)c1)c1c[nH]c2c(C3CCNCC3)cccc12 272.3 to 272.9 °C

Next molecule up: O=S(=O)(c1cc(Cl)cc(Cl)c1)c1c[nH]c2c(N3CCNCC3)cccc12 290 °C

* * *

Counter-ions that a name gives are not always drawn.
Measured endpoint: melting point

Which value of melting point has been reported for Cn1cc(S(=O)(=O)c2ccccc2)c2cccc(N3CCNCC3)c21 (as salt: hydrochloride) in the records? 249 to 250 °C

Now give it for O=S(=O)(c1ccc(Cl)c(Cl)c1)c1c[nH]c2ccc(N3CCNCC3)cc12 too. > 300 °C

Input CN1CCN(c2cccc3c(S(=O)(=O)c4cccc(Cl)c4)c[nH]c23)CC1 163 to 171 °C

One more compound: O=S(=O)(c1ccc(Cl)c(Cl)c1)c1c[nH]c2c(N3CCNCC3)cccc12 290 °C

// query: Cn1cc(S(=O)(=O)c2cccc(Cl)c2)c2cc(N3CCNCC3)ccc21 185.5 to 188.5 °C

Also CN1CCC(c2cccc3c(S(=O)(=O)c4ccc(F)cc4)c[nH]c23)CC1 , if possible. 178 to 182 °C

Ok, now O=S(=O)(c1ccccn1)c1c[nH]c2cc(N3CCNCC3)ccc12 246.7 to 247.2 °C

Also CN1CCN(c2cccc3c(S(=O)(=O)c4ccccc4Cl)c[nH]c23)CC1 , if possible. 168.5 to 175.9 °C

Follow-up item: O=S(=O)(c1cccc(Cl)c1)c1c[nH]c2c(N3CCNCC3)cccc12 295 °C

Input O=S(=O)(c1ccccc1)c1c[nH]c2c(N3CCNCC3)cccc12 (as salt: hydrochloride) 278 to 280 °C

Try the compound O=S(=O)(c1cccc(Cl)c1)c1c[nH]c2ccc(N3CCNCC3)cc12 192 to 197 °C

// same read-out, input: O=S(=O)(c1ccc(Cl)cc1Cl)c1c[nH]c2c(N3CCNCC3)cccc12 300 °C

How about this compound: O=S(=O)(c1ccc(F)cc1)c1c[nH]c2c(N3CCNCC3)cccc12 247 to 249 °C

Try this compound too: O=S(=O)(c1cccc(Cl)c1Cl)c1c[nH]c2ccc(N3CCNCC3)cc12 > 300 °C

What would you report for Clc1cccc(Sc2c[nH]c3ccc(N4CCNCC4)cc23)c1Cl ? 255.1 to 255.5 °C

One more compound: Cn1cc(S(=O)(=O)c2ccccc2Cl)c2cc(N3CCNCC3)ccc21 249.6 to 253 °C

Follow-up entry: O=S(=O)(c1cc(Cl)cc(Cl)c1)c1c[nH]c2ccc(N3CCNCC3)cc12 > 300 °C

Try this compound next: Cc1[nH]c2c(N3CCNCC3)cccc2c1S(=O)(=O)c1ccccc1 188 to 190 °C

* * *

For each entry below, report its melting point value.

I would be grateful if you could share the reported melting point for CCN1CCN(c2cccc3c(S(=O)(=O)c4ccccc4)c[nH]c23)CC1 . 274 to 275 °C

Now this one: O=S(=O)(c1ccccc1Cl)c1c[nH]c2ccc(N3CCNCC3)cc12 > 300 °C

Next record, please: COc1ccc(S(=O)(=O)c2c(C)[nH]c3c(N4CCNCC4)cccc23)cc1 182 to 184 °C

Same thing, different molecule: Cn1cc(S(=O)(=O)c2ccccc2Cl)c2cccc(N3CCNCC3)c21 295 to 297 °C

O=S(=O)(c1ccccc1)c1c[nH]c2ccc(N3CCNCC3)cc12 ? 254 to 264 °C (dec.)

Note, next up: Cn1cc(S(=O)(=O)c2ccccc2)c2cc(N3CCNCC3)ccc21 239 to 240 °C (dec.)

Now consider Cn1cc(S(=O)(=O)c2ccc(F)cc2)c2cc(N3CCNCC3)ccc21 and answer again. 195 to 207 °C

Would you kindly repeat that for CN1CCN(c2cccc3c(S(=O)(=O)c4cc(Cl)cc(Cl)c4)c[nH]c23)CC1 ? 237.1 to 241.5 °C

* * *

Measured endpoint: melting point

If you can, please state the reported melting point value of Cn1cc(S(=O)(=O)c2ccccn2)c2cccc(N3CCNCC3)c21 [compound 402] . 297 to 298 °C

Also, Cc1ccc(S(=O)(=O)c2c[nH]c3c(N4CCNCC4)cccc23)cc1 [compound 102] please. 285 to 287 °C

Another molecule to check: O=S(=O)(c1ccccn1)c1c[nH]c2c(N3CCNCC3)cccc12 198 to 199 °C

Now this one: Cn1cc(S(=O)(=O)c2cc(Cl)cc(Cl)c2)c2cc(N3CCNCC3)ccc21 [compound 411] 282 to 284.5 °C

Now consider O=S(=O)(c1ccccc1)c1c[nH]c2c(N3CCN(CC4CC4)CC3)cccc12 [compound 511] . 280 to 282 °C
